settings: in diethyl ether, 278.15 K
Test Readout: solubility (mole fraction)

Asked: So what's the measured solubility (mole fraction) for this one? Oc1ccccc1/C=N/CC/N=C/c1ccccc1O
Given back: 0.00165

----------
conditions: in n-hexane, 293.15 K
Test Readout: solubility (mole fraction)
Number only, no unit.

Asked: Query: solubility (mole fraction); subject: Oc1ccccc1/C=N/CC/N=C/c1ccccc1O
Given back: 0.00095

----------
details: in diethyl ether, 288.15 K
Test Readout: solubility (mole fraction)
Answer with a number only.

Asked: Value lookup for solubility (mole fraction); key = Oc1ccccc1/C=N/CC/N=C/c1ccccc1O
Given back: 0.00232

----------
settings: in dichloromethane, 303.15 K
Test Readout: solubility (mole fraction)
// no unit string in output, number only

Asked: Need solubility (mole fraction) of Oc1ccccc1/C=N/CC/N=C/c1ccccc1O , thanks.
Given back: 0.0775

----------
conditions: in dichloromethane, 278.15 K
Test Readout: solubility (mole fraction)

Asked: Can you share its solubility (mole fraction)? I mean this compound: Oc1ccccc1/C=N/CC/N=C/c1ccccc1O
Given back: 0.0408

----------
conditions: in ethanol, 278.15 K
Test Readout: solubility (mole fraction)

Asked: Would you kindly share the measured solubility (mole fraction) for Oc1ccccc1/C=N/CC/N=C/c1ccccc1O ?
Given back: 0.00026

----------
settings: in dichloromethane, 273.15 K
Test Readout: solubility (mole fraction)
No unit in the answer, only the number.

Asked: Name the recorded solubility (mole fraction) for Oc1ccccc1/C=N/CC/N=C/c1ccccc1O .
Given back: 0.0369

----------
conditions: in n-hexane, 318.15 K
Test Readout: solubility (mole fraction)
Number, no unit, nothing else.

Asked: Record request: solubility (mole fraction) value, item Oc1ccccc1/C=N/CC/N=C/c1ccccc1O
Given back: 0.00186

----------
details: in dichloromethane, 268.15 K
Test Readout: solubility (mole fraction)

Asked: Would you mind telling me what solubility (mole fraction) value was observed for Oc1ccccc1/C=N/CC/N=C/c1ccccc1O ?
Given back: 0.0352

----------
settings: in toluene, 283.15 K
Test Readout: solubility (mole fraction)
Number only, please.

Asked: Tell me the measured solubility (mole fraction) of Oc1ccccc1/C=N/CC/N=C/c1ccccc1O , please.
Given back: 0.0115

----------
conditions: in n-hexane, 298.15 K
Test Readout: solubility (mole fraction)

Asked: Requested field: solubility (mole fraction). Item: Oc1ccccc1/C=N/CC/N=C/c1ccccc1O
Given back: 0.00112

----------
details: in methanol, 278.15 K
Test Readout: solubility (mole fraction)
Lab note: jot down the number only; don't add units.

Asked: I am curious: what solubility (mole fraction) value has been reported for Oc1ccccc1/C=N/CC/N=C/c1ccccc1O ?
Given back: 0.0003

----------
details: in methanol, 283.15 K
Test Readout: solubility (mole fraction)
I only need the number, thanks.

Asked: # lookup: solubility (mole fraction) of Oc1ccccc1/C=N/CC/N=C/c1ccccc1O
Given back: 0.00036

----------
conditions: in dichloromethane, 293.15 K
Test Readout: solubility (mole fraction)

Asked: Need solubility (mole fraction), item Oc1ccccc1/C=N/CC/N=C/c1ccccc1O
Given back: 0.0605

----------
conditions: in n-hexane, 288.15 K
Test Readout: solubility (mole fraction)
Could you respond with only the numeric value?

Asked: Which measured solubility (mole fraction) value corresponds to Oc1ccccc1/C=N/CC/N=C/c1ccccc1O ?
Given back: 0.00084

----------
conditions: in diethyl ether, 303.15 K
Test Readout: solubility (mole fraction)
The reply should be a number, written without any unit.

Asked: What solubility (mole fraction) value was documented for this compound, Oc1ccccc1/C=N/CC/N=C/c1ccccc1O ?
Given back: 0.00455

----------
conditions: in toluene, 293.15 K
Test Readout: solubility (mole fraction)
Give your answer as a number; write no unit.

Asked: Please look up its solubility (mole fraction): Oc1ccccc1/C=N/CC/N=C/c1ccccc1O
Given back: 0.0164

----------
details: in ethanol, 288.15 K
Test Readout: solubility (mole fraction)

Asked: Need solubility (mole fraction), item Oc1ccccc1/C=N/CC/N=C/c1ccccc1O
Given back: 0.00048

----------
conditions: in n-hexane, 303.15 K
Test Readout: solubility (mole fraction)
Just the number, please.

Asked: Data request, read-out solubility (mole fraction), for Oc1ccccc1/C=N/CC/N=C/c1ccccc1O
Given back: 0.00127

----------
settings: in ethanol, 318.15 K
Test Readout: solubility (mole fraction)
Give only the figure.

Asked: Look at this molecule and give its reported solubility (mole fraction). Oc1ccccc1/C=N/CC/N=C/c1ccccc1O
Given back: 0.00252

----------
details: in toluene, 303.15 K
Test Readout: solubility (mole fraction)

Asked: Fill in: solubility (mole fraction) of Oc1ccccc1/C=N/CC/N=C/c1ccccc1O is ___
Given back: 0.0256

----------
conditions: in methanol, 303.15 K
Test Readout: solubility (mole fraction)
Provide a numeric answer; units are not to be included.

Asked: What does the data say about its solubility (mole fraction)? Entry: Oc1ccccc1/C=N/CC/N=C/c1ccccc1O
Given back: 0.00099

----------
conditions: in methanol, 298.15 K
Test Readout: solubility (mole fraction)

Asked: What solubility (mole fraction) value was documented for this compound, Oc1ccccc1/C=N/CC/N=C/c1ccccc1O ?
Given back: 0.00081

----------
settings: in ethanol, 308.15 K
Test Readout: solubility (mole fraction)
Give the figure by itself; no unit, no explanation.

Asked: Any idea what its solubility (mole fraction) is? The compound is Oc1ccccc1/C=N/CC/N=C/c1ccccc1O
Given back: 0.00147

----------
details: in ethanol, 283.15 K
Test Readout: solubility (mole fraction)
Reply with the value as a number alone.

Asked: Would you mind telling me what solubility (mole fraction) value was observed for Oc1ccccc1/C=N/CC/N=C/c1ccccc1O ?
Given back: 0.00035

----------
conditions: in ethanol, 303.15 K
Test Readout: solubility (mole fraction)
Give a plain numeric answer without units written out.

Asked: May I ask what solubility (mole fraction) has been recorded for Oc1ccccc1/C=N/CC/N=C/c1ccccc1O ?
Given back: 0.00112

----------
details: in dichloromethane, 283.15 K
Test Readout: solubility (mole fraction)

Asked: Quick check: solubility (mole fraction) of Oc1ccccc1/C=N/CC/N=C/c1ccccc1O ?
Given back: 0.0469

----------
conditions: in diethyl ether, 273.15 K
Test Readout: solubility (mole fraction)
Answer as a number with no unit attached.

Asked: Consider the molecule shown here: Oc1ccccc1/C=N/CC/N=C/c1ccccc1O What is its recorded solubility (mole fraction)?
Given back: 0.00136

----------
details: in ethanol, 293.15 K
Test Readout: solubility (mole fraction)
Enter a number only.

Asked: Which value of solubility (mole fraction) has been reported for Oc1ccccc1/C=N/CC/N=C/c1ccccc1O in the records?
Given back: 0.00069
